Tested on: RPMI-8226 leukemia
Experiment: NCI-60 one-dose screen, 48 h
Conditions: 10 µM unless noted
About 83,000 compounds went through this panel and 20% of them were active in at least one assay; those are over-represented in the sample as a whole. The source made the active and inactive calls. The calls were made as follows: active = growth percent below 10; inactive = the rest.
Give one outcome, nothing more. List: Yes = active, No = inactive

Input: What classification did COc1ccc(-c2cc(-c3ccc(Cl)cc3)c(C#N)c(=O)n2CCCCC(=O)Nc2ccccc2N)cc1 end up with in this test?
Output: Yes

Input: What classification did CCOC(=O)c1cnc2ccccc2c1Cl end up with in this test?
Output: No

Input: What classification did O=C1C(Cl)=C(Nc2ccc(O)cc2)C(=O)N1Cc1ccc(Cl)cc1 end up with in this test?
Output: No

Input: What classification did O=C(Nn1c2c(sc1=NCc1ccccc1)C(=O)c1ccccc1C2=O)c1cc2ccc1CCc1ccc(cc1)CC2 end up with in this test?
Output: No

Input: What classification did O=S(=O)(Nc1cc(Br)c(O)c2ccccc12)c1ccc(F)cc1 end up with in this test?
Output: No

Input: What classification did COC(=O)c1cc(-c2ccc(OC)cc2)[nH]c1N/N=C/c1c(Cl)cccc1Cl end up with in this test?
Output: No

Input: What classification did Cc1cc(Cl)ccc1Nc1nc(C(F)(F)F)ccc1C(=O)N/N=C/c1ccc([N+](=O)[O-])cc1 end up with in this test?
Output: Yes

Input: What classification did CC(C)=CCC[C@](C)(O)[C@H]1CC[C@]2(C)[C@@H]1CC[C@@H]1[C@@]3(C)Cc4nccnc4C(C)(C)[C@@H]3CC[C@]12C end up with in this test?
Output: No

Input: What classification did CCOc1ccc(NC(=O)CSc2oc(-c3ccccc3)nc2S(=O)(=O)c2ccc(F)cc2)cc1 end up with in this test?
Output: No

Input: What classification did CC(=O)n1nc(C(=O)OC(C)C)c2cc(C)c(C)cc21 end up with in this test?
Output: No

Input: What classification did CC1(c2ccccc2O)NN=C(/N=C/c2cccc([N+](=O)[O-])c2)N1C(Cc1c[nH]c2ccccc12)C(=O)O (stereo not given) end up with in this test?
Output: No

Input: What classification did CCc1nc2c(=O)[nH]cnc2o1 end up with in this test?
Output: No

Input: What classification did CCOC(=O)c1cn2ncnc(Oc3ccc(NC(=O)NC4CCCCC4)c(Cl)c3)c2c1C end up with in this test?
Output: No

Input: What classification did N#Cc1c(-c2cccs2)cc(-c2cccnc2)[nH]c1=O end up with in this test?
Output: No

Input: What classification did Cc1ccc(-c2nc3nc(-c4ccccc4)nc(N4CCNCC4)c3o2)cc1 end up with in this test?
Output: Yes

Input: What classification did N=C(N)c1ccc(-c2ccc(-c3ccc(F)cc3)o2)o1 end up with in this test?
Output: Yes

Input: What classification did CC(C)N1CCN(Cc2ccc3c(NNC(=O)c4ccccc4)nc4cc(F)ccc4n23)CC1 end up with in this test?
Output: No

Input: What classification did O=[N+]([O-])c1ccc(S(=O)(=O)N2CCN(C3=NS(=O)(=O)c4ccccc4N3c3ccccc3)CC2)cc1 end up with in this test?
Output: No

Input: What classification did COc1ccc(CC(C#N)c2cc3ccccc3[nH]2)cc1 (stereo not given) end up with in this test?
Output: No

Input: What classification did COc1cc(-c2cc(-c3ccc(N(C)C)cc3)nc(N3CCC(O)CC3)c2C#N)cc(OC)c1OC end up with in this test?
Output: Yes
